tested-target: PSMA (Homo sapiens, UniProt Q04609)
Sequence (Q04609 whole entry): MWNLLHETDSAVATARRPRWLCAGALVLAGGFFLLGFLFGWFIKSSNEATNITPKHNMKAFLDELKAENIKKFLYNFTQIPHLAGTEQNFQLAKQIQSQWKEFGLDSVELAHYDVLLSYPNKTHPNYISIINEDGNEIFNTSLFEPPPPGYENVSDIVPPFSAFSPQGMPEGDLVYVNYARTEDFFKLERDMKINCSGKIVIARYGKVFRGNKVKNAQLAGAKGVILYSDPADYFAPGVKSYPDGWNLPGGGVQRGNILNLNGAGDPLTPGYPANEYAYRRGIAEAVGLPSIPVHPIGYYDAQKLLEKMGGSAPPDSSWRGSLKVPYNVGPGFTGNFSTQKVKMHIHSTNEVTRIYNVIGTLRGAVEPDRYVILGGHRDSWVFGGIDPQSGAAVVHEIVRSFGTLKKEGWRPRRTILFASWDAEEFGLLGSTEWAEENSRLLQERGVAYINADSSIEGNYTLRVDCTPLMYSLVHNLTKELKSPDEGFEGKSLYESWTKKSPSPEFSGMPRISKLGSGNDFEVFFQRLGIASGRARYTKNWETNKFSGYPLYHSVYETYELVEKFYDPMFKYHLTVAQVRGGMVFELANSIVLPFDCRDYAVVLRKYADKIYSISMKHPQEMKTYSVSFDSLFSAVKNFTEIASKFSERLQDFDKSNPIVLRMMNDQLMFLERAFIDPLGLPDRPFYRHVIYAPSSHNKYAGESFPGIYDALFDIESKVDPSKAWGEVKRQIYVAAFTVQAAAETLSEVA
test-details: Time-dependence and reversibility of PSMA inhibition (100-fold dilution of inhibited enzyme)
Type: biochemical
condition: recovery of PSMA activity after 100-fold dilution of inhibited enzyme

{"columns": ["compound", "reversibility of PSMA inhibition"],
 "data": [
  ["CN(C(=O)c1ccccc1)[C@@H](COP(=O)(O)N[C@@H](CCC(=O)O)C(=O)O)C(=O)O", "irreversible"],
  ["O=C(O)CC[C@H](NP(=O)(O)OCC(CCc1ccccc1)C(=O)O)C(=O)O (some centres unmarked)", "irreversible"],
  ["O=C(O)CC[C@H](NP(=O)(O)OC[C@H](NC(=O)c1ccccc1)C(=O)O)C(=O)O", "irreversible"]
]}
